# Test system: Aspergillus niger
# Protocol text: Antifungal activity against Aspergillus niger MTCC 282 after 72 hr by serial broth dilution method
# Assay type: functional
# Experimental conditions: MTCC 282, 72 h
Property: MIC (µg/mL)
Could you give me the number in µg/mL? Just the number is fine.

Below: 4 compounds and their reported MIC.
Smiles entry | Result unit | MIC
O=C(CN1CCOCC1)Nc1nc(-c2ccccc2F)cc(-c2cc3cc(Cl)ccc3nc2Cl)n1 | µg/mL | 25
COc1ccc(-c2cc(-c3cc4cc(Cl)ccc4nc3Cl)nc(NC(=O)CN3CCOCC3)n2)cc1 | µg/mL | 500
O=C(CN1CCOCC1)Nc1nc(-c2ccccc2)cc(-c2cc3cc(Cl)ccc3nc2Cl)n1 | µg/mL | 1000
O=C(CN1CCOCC1)Nc1nc(-c2ccccc2Cl)cc(-c2cc3cc(Cl)ccc3nc2Cl)n1 | µg/mL | 100

Consider the record given below.
What MIC value was documented for this compound, `COC1=CC(=O)C[C@@H](C)[C@]12Oc1c(Cl)c(OC)cc(OC)c1C2=O` ?
100

====

# System: Streptococcus pyogenes
# Protocol text: Antibacterial activity against Streptococcus pyogenes MTCC 442 after 24 to 48 hr by serial broth dilution method
# Type: functional
Property: MIC (µg/mL)
Could you give me the number in µg/mL? Just the number is fine.

Smiles entry | MIC [µg/mL]
O=C(CN1CCOCC1)Nc1nc(-c2ccc(Cl)cc2)cc(-c2cc3cc(Cl)ccc3nc2Cl)n1 | 50
O=C(CN1CCOCC1)Nc1nc(-c2ccccc2)cc(-c2cc3cc(Cl)ccc3nc2Cl)n1 | 1000
O=C(CN1CCOCC1)Nc1nc(-c2cccc([N+](=O)[O-])c2)cc(-c2cc3cc(Cl)ccc3nc2Cl)n1 | 100
O=C(CN1CCOCC1)Nc1nc(-c2ccccc2O)cc(-c2cc3cc(Cl)ccc3nc2Cl)n1 | 500
O=C(CN1CCOCC1)Nc1nc(-c2ccc([N+](=O)[O-])cc2)cc(-c2cc3cc(Cl)ccc3nc2Cl)n1 | 250
O=C(CN1CCOCC1)Nc1nc(-c2ccc(F)cc2)cc(-c2cc3cc(Cl)ccc3nc2Cl)n1 | 100
O=C(CN1CCOCC1)Nc1nc(-c2ccc(O)cc2)cc(-c2cc3cc(Cl)ccc3nc2Cl)n1 | 1000
O=C(CN1CCOCC1)Nc1nc(-c2ccccc2Cl)cc(-c2cc3cc(Cl)ccc3nc2Cl)n1 | 100

Consider the record given below.
What MIC value was documented for this compound, `COc1ccc(-c2cc(-c3cc4cc(Cl)ccc4nc3Cl)nc(NC(=O)CN3CCOCC3)n2)cc1` ?
500

====

# System: Candida albicans
# Protocol text: Antifungal activity against Candida albicans MTCC 227 after 72 hr by serial broth dilution method
# Assay type: functional
# Experimental conditions: MTCC 227, 72 h
MIC values by entry
Could you give me the number in µg/mL? Just the number is fine.

Below: 4 compounds and their reported MIC.
Smiles entry | Target under test | Result unit | MIC
O=C(CN1CCOCC1)Nc1nc(-c2ccc(O)cc2)cc(-c2cc3cc(Cl)ccc3nc2Cl)n1 | Candida albicans | µg/mL | 1000
O=C(CN1CCOCC1)Nc1nc(-c2ccccc2)cc(-c2cc3cc(Cl)ccc3nc2Cl)n1 | Candida albicans | µg/mL | 1000
O=C(CN1CCOCC1)Nc1nc(-c2cccc(F)c2)cc(-c2cc3cc(Cl)ccc3nc2Cl)n1 | Candida albicans | µg/mL | 1000
O=C(CN1CCOCC1)Nc1nc(-c2ccc(F)cc2)cc(-c2cc3cc(Cl)ccc3nc2Cl)n1 | Candida albicans | µg/mL | 500

What MIC value was documented for this compound, `O=C(CN1CCOCC1)Nc1nc(-c2ccccc2[N+](=O)[O-])cc(-c2cc3cc(Cl)ccc3nc2Cl)n1` ?
100

====

MIC values by entry
# System: Aspergillus niger
# Protocol text: Antifungal activity against Aspergillus niger MTCC 282 after 72 hr by serial broth dilution method
# Type: functional
# Experimental conditions: MTCC 282, 72 h
Could you give me the number in µg/mL? Just the number is fine.

Below: 3 compounds and their reported MIC.
Smiles entry | Property | Result unit | Endpoint value
O=C(CN1CCOCC1)Nc1nc(-c2ccc(F)cc2)cc(-c2cc3cc(Cl)ccc3nc2Cl)n1 | MIC | µg/mL | 1000
O=C(CN1CCOCC1)Nc1nc(-c2ccccc2[N+](=O)[O-])cc(-c2cc3cc(Cl)ccc3nc2Cl)n1 | MIC | µg/mL | 25
O=C(CN1CCOCC1)Nc1nc(-c2cccc(F)c2)cc(-c2cc3cc(Cl)ccc3nc2Cl)n1 | MIC | µg/mL | 100

Consider the record given below.
What MIC value was documented for this compound, `O=C(CN1CCOCC1)Nc1nc(-c2ccc(Cl)cc2)cc(-c2cc3cc(Cl)ccc3nc2Cl)n1` ?
100

====

# Test system: Candida albicans
# Protocol text: Antifungal activity against Candida albicans MTCC 227 after 72 hr by serial broth dilution method
# Format: functional
# Experimental conditions: MTCC 227, 72 h
Property: MIC (mg/L)
Could you give me the number in mg/L? Just the number is fine.

Below: 5 compounds and their reported MIC.
Smiles entry | Property | Result unit | Endpoint value
O=C(CN1CCOCC1)Nc1nc(-c2cccc([N+](=O)[O-])c2)cc(-c2cc3cc(Cl)ccc3nc2Cl)n1 | MIC | mg/L | 500
O=C(CN1CCOCC1)Nc1nc(-c2ccccc2Cl)cc(-c2cc3cc(Cl)ccc3nc2Cl)n1 | MIC | mg/L | 500
COc1ccc(-c2cc(-c3cc4cc(Cl)ccc4nc3Cl)nc(NC(=O)CN3CCOCC3)n2)cc1 | MIC | mg/L | 1000
O=C(CN1CCOCC1)Nc1nc(-c2ccc([N+](=O)[O-])cc2)cc(-c2cc3cc(Cl)ccc3nc2Cl)n1 | MIC | mg/L | 250
COC1=CC(=O)C[C@@H](C)[C@]12Oc1c(Cl)c(OC)cc(OC)c1C2=O | MIC | mg/L | 500

What MIC value was documented for this compound, `O=C(CN1CCOCC1)Nc1nc(-c2ccc(Cl)cc2)cc(-c2cc3cc(Cl)ccc3nc2Cl)n1` ?
100

Moving on to `O=C(CN1CCOCC1)Nc1nc(-c2ccccc2O)cc(-c2cc3cc(Cl)ccc3nc2Cl)n1`
1000

Moving on to `O=C(CN1CCOCC1)Nc1nc(-c2ccccc2F)cc(-c2cc3cc(Cl)ccc3nc2Cl)n1`
250

====

MIC values by entry
# Tested on: Streptococcus pyogenes
# Protocol text: Antibacterial activity against Streptococcus pyogenes MTCC 442 after 24 to 48 hr by serial broth dilution method
# Assay type: functional
Could you give me the number in mg/L? Just the number is fine.

Below: 3 compounds and their reported MIC.
Smiles entry | Property | Endpoint value
O=C(CN1CCOCC1)Nc1nc(-c2ccccc2F)cc(-c2cc3cc(Cl)ccc3nc2Cl)n1 | MIC | 100
CC1(C)S[C@@H]2[C@H](NC(=O)[C@H](N)c3ccccc3)C(=O)N2[C@H]1C(=O)O | MIC | 100
O=C(CN1CCOCC1)Nc1nc(-c2ccccc2[N+](=O)[O-])cc(-c2cc3cc(Cl)ccc3nc2Cl)n1 | MIC | 12.5

Entry `O=C(CN1CCOCC1)Nc1nc(-c2cccc(F)c2)cc(-c2cc3cc(Cl)ccc3nc2Cl)n1` , system Streptococcus pyogenes: what MIC was measured?
500

====

# Test system: Aspergillus niger
# Protocol text: Antifungal activity against Aspergillus niger MTCC 282 after 72 hr by serial broth dilution method
# Type: functional
# Experimental conditions: MTCC 282, 72 h
MIC values by entry
Could you give me the number in µg/mL? Just the number is fine.

Below: 3 molecules and their reported MIC.
Smiles entry | Target under test | MIC [µg/mL]
O=C(CN1CCOCC1)Nc1nc(-c2ccc([N+](=O)[O-])cc2)cc(-c2cc3cc(Cl)ccc3nc2Cl)n1 | Aspergillus niger | 100
O=C(CN1CCOCC1)Nc1nc(-c2cccc([N+](=O)[O-])c2)cc(-c2cc3cc(Cl)ccc3nc2Cl)n1 | Aspergillus niger | 50
O=C(CN1CCOCC1)Nc1nc(-c2ccccc2O)cc(-c2cc3cc(Cl)ccc3nc2Cl)n1 | Aspergillus niger | 500

What MIC value was documented for this molecule, `O=C(CN1CCOCC1)Nc1nc(-c2ccc(O)cc2)cc(-c2cc3cc(Cl)ccc3nc2Cl)n1` ?
1000
